- measurement-description: Zebrafish embryo mortality/toxicity
- Type: in vivo
- assay-conditions: wild-type, in vivo; zebrafish embryos, overnight exposure, 0.5 to 1000 µM; mean of three biological replicates ± standard deviation
Catalogue of molecules with associated LC50
Just the number please, in µM, no unit attached.

                                   molecule  measured_property  reported
0  COC(=O)C(C)NC(=O)CNc1nc(Nc2ccccc2)nc(N2CCCCC2)n1 (centres unmarked)               LC50      5.98
1  COC(=O)C(NC(=O)CCNc1nc(Nc2ccc(Cl)cc2)nc(N2CCOCC2)n1)C(C)C (centres unmarked)               LC50      5.84
2  COC(=O)C(NC(=O)CNc1nc(Nc2ccc(Cl)cc2)nc(N2CCOCC2)n1)C(C)C (centres unmarked)               LC50       132
3  COC(=O)C(C)NC(=O)CNc1nc(Nc2ccc(Cl)cc2)nc(N2CCOCC2)n1 (centres unmarked)               LC50      2.37
4  COC(=O)CNC(=O)CNc1nc(Nc2ccccc2)nc(N2CCCCC2)n1               LC50      10.1
5  COC(=O)C(C)NC(=O)CNc1nc(Nc2ccc(OC)cc2)nc(N2CCOCC2)n1 (centres unmarked)               LC50      28.4

Now for a further molecule.
Lookup: For the molecule COC(=O)C(C)NC(=O)CNc1nc(Nc2ccc(Cl)cc2)nc(N2CCCCC2)n1 (centres unmarked) , give its measured LC50 value.
Found: 4.25
